Provenance of the data: ChEMBL document CHEMBL1201862

- Test system: SN12C
- test: NCI tumour cell line growth inhibition, 48 h
Active and inactive are the calls of the source. No stated cut-off is given here; in the data, active = GI50 up to about 1.1 µM and inactive = higher.
One label from this list, please: Y (active), N (inactive)

CCOC(=O)/C(O)=C1\C(=O)N(C)C(=O)C1c1cccc(OC)c1 (centres undefined)    N
O=[N+]([O-])c1ccc2c(c1)S(=O)(=O)N1Cc3ccccc3CCN21    N
CNCCCNc1c2ccccc2nc2cccc([N+](=O)[O-])c12    Y

Now take the following compound into account.
Short answer needed: outcome of this test for `O=[N+]([O-])/C(C(Cl)=C(Cl)Cl)=C(\Nc1cccc2cccnc12)SCc1ccccc1` ?
N

---

- Tested on: HCC 2998
- test: NCI tumour cell line growth inhibition, 48 h
The source made the active and inactive calls. Rule as the data show it: active = GI50 up to about 1.1 µM and inactive = higher.
One label from this list, please: active, inactive

Short answer needed: outcome of this test for `O=[N+]([O-])c1ccc2c(c1)C1=C(CO2)Cc2ccccc2O1` ?
inactive

---

GI50 overview
- Test system: 786-0
- test: NCI tumour cell line growth inhibition, 48 h
Activity calls are given as the source filed them. Cut-off read from the data, not from the text of the source: active = GI50 up to about 1.1 µM and inactive = higher.

A selection of reference data follows.
C=C(C)C1CCC2(CO)C(O)CC3(C)C(CCC4C5(C)CCC(O)C(C)(C)C5CCC43C)C12 (centres undefined)    8.09 µM (inactive)
N#Cc1c2c(c(Nc3ccc(F)cc3)n3c1nc1ccccc13)CCC2    1.78 µM (inactive)
COC(O)C(=O)c1c2c(cc3c1CCC3)CCC2 (centres undefined)    > 100 µM (inactive)
O=C(/C=C/c1ccc[nH]1)c1ccccc1    > 100 µM (inactive)
CC(C)C1N2CCCCC2[C@@H]2c3[nH]c4ccccc4c3CCN12 (some centres undefined)    > 100 µM (inactive)
COc1ccc2c(c1)CC1NC2Cc2ccccc21 (centres undefined)    > 100 µM (inactive)
Nc1c(-c2ccccc2)c2ccc([N+](=O)[O-])cc2c(=O)n1-c1cccc(C(=O)O)c1    > 10 µM (inactive)
CC(Br)C(=O)Nc1ccc(C(=O)O)c(O)c1 (centres undefined)    37.6 µM (inactive)

Next, consider the following molecule.
What does the data say about its GI50? Entry: COc1ccc2c3c1OC1C(=O)C=CC4(O)C(C2)NCC[C@@]314 (some centres undefined)
1.58 µM (inactive)

---

- Tested on: OVCAR-5
- test: NCI tumour cell line growth inhibition, 48 h
Calls of active or inactive are those of the source. Cut-off read from the data, not from the text of the source: active = GI50 up to about 1.1 µM and inactive = higher.
GI50 overview

A selection of reference data follows.
O=[N+]([O-])c1ccc2c(c1)S(=O)(=O)N1Cc3ccccc3CCN21    > 100 µM (inactive)
COC(=O)N1CCc2c(nc(N(C)CCO)[nH]c2=O)C1    > 100 µM (inactive)
COc1ccc(/C=c2\sc3nnc(CCC(=O)Nc4cccc(C(F)(F)F)c4)n3c2=O)cc1    > 100 µM (inactive)
Cc1ccc2c(c1)C=CC(C#N)N2C(=O)Oc1ccccc1 (stereo not given)    61.4 µM (inactive)
O=S(=O)(c1cc(Cl)ccc1Cl)N1CCN(S(=O)(=O)c2cc(Cl)ccc2Cl)CC1    16.3 µM (inactive)

Give OVCAR-5 GI50 for `N#C/C(=C\Nc1ccccn1)C(=O)C1CC1`
> 100 µM (inactive)

Give OVCAR-5 GI50 for `N#Cc1c(-c2ccc([N+](=O)[O-])cc2)cc(-c2ccc(Nc3ccnc4cc(C(F)(F)F)ccc34)cc2)nc1N`
30.9 µM (inactive)

Give OVCAR-5 GI50 for `CC(C)(C)C1CCC2(CC1)CCN(CCCN1CCOCC1)CC2`
> 60 µM (inactive)

Give OVCAR-5 GI50 for `C/C(=N\NC(=S)NC(C)C)c1nc2cccnc2[nH]1`
28.8 µM (inactive)

Give OVCAR-5 GI50 for C=C1c2cc3c(cc2CC12Cc1cc4c(cc1C2=O)CCC4)CCC3 (stereo not given)
> 100 µM (inactive)

Give OVCAR-5 GI50 for `O[C@@H]1C[C@@H]2N[C@@](O)(C[C@@H]2O)[C@H]1O`
> 100 µM (inactive)
